- Test system: Bacillus spizizenii
- assay_notes: Antibacterial activity against Bacillus spizizenii ATCC 6633 after 24 hrs by broth microdilution method
- Format: functional
- applied_conditions: ATCC 6633, 24 h
Each entry below carries its recorded MIC.
observation_type: MIC (µg/mL)

O=C(CCc1ccc(O)cc1)c1ccc(O[C@@H]2O[C@H](CO)[C@@H](O)[C@H](O)[C@H]2O)cc1O [CONFUSOSIDE] = 120
O=C(CCc1ccc(O)cc1)c1ccc(O)cc1O [DAVIDIGENIN] = 120
O=c1c(O[C@@H]2O[C@H](CO)[C@@H](O)[C@H](O)[C@H]2O)c(-c2ccc(O)c(O)c2)oc2cc(O)cc(O)c12 [ISOQUERCETIN] = 1000
O=c1cc(-c2ccc(O)c(O)c2)oc2cc(O[C@@H]3O[C@H](CO)[C@@H](O)[C@H](O)[C@H]3O)ccc12 = 1000
